System: human Src enzyme (Homo sapiens, UniProt P12931)
Construct: purchased Carna Biosciences, Inc. 08-173
Sequence (P12931 whole entry): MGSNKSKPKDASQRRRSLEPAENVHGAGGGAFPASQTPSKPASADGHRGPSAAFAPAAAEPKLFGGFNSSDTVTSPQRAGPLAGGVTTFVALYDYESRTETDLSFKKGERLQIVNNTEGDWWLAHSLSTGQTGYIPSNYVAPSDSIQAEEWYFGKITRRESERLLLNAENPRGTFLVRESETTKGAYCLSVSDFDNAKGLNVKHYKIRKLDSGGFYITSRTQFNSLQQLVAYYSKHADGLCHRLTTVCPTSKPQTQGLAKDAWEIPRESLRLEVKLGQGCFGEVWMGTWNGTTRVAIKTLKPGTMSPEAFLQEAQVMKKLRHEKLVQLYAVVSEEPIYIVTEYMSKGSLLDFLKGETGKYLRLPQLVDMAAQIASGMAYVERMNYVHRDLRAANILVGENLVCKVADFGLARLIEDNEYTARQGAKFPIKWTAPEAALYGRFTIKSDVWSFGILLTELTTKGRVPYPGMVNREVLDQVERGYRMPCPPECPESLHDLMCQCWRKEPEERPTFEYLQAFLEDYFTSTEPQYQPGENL
Test summary: Src enzyme inhibitory activity (time-resolved fluorometry, biotinylated peptide phosphorylation)
Type: biochemical
Details: biotinylated peptide phosphorylation, read-out: SRC_IC50
pIC50: −log10 of the molar value.
Metric: pIC50

Solved cases below.
Cc1cc(Oc2c(F)cccc2F)ncc1-n1ncc(C(=O)c2cc3cc(F)c(NS(=O)(=O)c4cccc(C#N)c4)cc3[nH]2)c1N :: 6.12
CC(C)N1CCC(c2cc3cc(C(=O)c4cnn(-c5ccc(Oc6cccc(F)c6)cc5)c4N)[nH]c3cc2F)CC1 :: 7.92
Cc1cc2cc(C(=O)c3cnn(-c4ccc(Oc5ccccc5F)cc4C)c3N)[nH]c2cc1NS(=O)(=O)c1cccc(F)c1 :: 6.31

[I] Cc1cc2cc(C(=O)c3cnn(-c4cnc(Oc5c(F)cccc5F)cc4C)c3N)[nH]c2cc1NS(=O)(=O)c1cccc(Cl)n1
[II] Cc1cc(Oc2c(F)cccc2F)ncc1-n1ncc(C(=O)c2cc3cc(F)c(N4C(=O)CNC4=O)cc3[nH]2)c1N
### Prompt Of I and II , which carries the smaller reported pIC50 figure? Output the label that corresponds to your choice.
### Response I

----------
System: human Lck enzyme (Homo sapiens, UniProt P06239)
Construct: purchased Carna Biosciences, Inc. 08-170
Sequence (P06239 whole entry): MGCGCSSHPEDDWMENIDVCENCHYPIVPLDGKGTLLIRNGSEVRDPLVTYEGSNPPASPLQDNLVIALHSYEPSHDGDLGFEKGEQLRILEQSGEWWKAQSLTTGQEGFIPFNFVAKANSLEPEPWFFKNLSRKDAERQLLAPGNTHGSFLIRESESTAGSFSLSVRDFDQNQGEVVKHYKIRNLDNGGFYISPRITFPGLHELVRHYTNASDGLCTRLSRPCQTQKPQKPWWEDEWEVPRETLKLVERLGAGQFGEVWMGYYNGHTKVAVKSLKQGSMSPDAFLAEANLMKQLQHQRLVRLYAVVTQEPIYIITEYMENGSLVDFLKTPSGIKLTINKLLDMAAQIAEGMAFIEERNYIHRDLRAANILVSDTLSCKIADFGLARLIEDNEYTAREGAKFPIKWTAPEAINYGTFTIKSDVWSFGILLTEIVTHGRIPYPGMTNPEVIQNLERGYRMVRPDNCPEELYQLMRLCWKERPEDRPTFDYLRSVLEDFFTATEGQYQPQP
Test summary: Lck enzyme inhibitory activity (time-resolved fluorometry, biotinylated peptide phosphorylation)
Assay type: biochemical
Details: read-out: LCK_IC50
Procedure: 3. Lck Enzyme Inhibitory Activity Lck inhibitory activity was determined based on activity of inhibiting phosphorylation reaction of a biotinylated peptide (EGPWLEEEEEAYGWMDF) using a human Lck enzyme (manufactured by Carna Biosciences, Inc., cat 08-170). The phosphorylated biotinylated peptide was detected by time-resolved fluorometry using an anti-phosphorylated tyrosine antibody conjugated to europium cryptate, and streptavidin conjugated to XL665, an allophycocyanin derivative. […]
Metric: IC50 (µM)

Cc1cc2cc(C(=O)c3cnn(-c4ccc(Oc5ccccc5F)cc4C)c3N)[nH]c2cc1NS(=O)(=O)C1CCOCC1 [Example 5-1-347] :: 0.011

[I] Cc1cc2cc(C(=O)c3cnn(-c4ccc(Oc5ccccc5F)cc4C)c3N)[nH]c2cc1N1C(=O)NC2(CCC2)C1=O [Example 5-1-371]
[II] Cc1cc2cc(C(=O)c3cnn(-c4ccc(Oc5ccccc5)cc4C)c3N)[nH]c2cc1NS(C)(=O)=O [Example 5-1-108]
[III] Cc1cc2cc(C(=O)c3cnn(-c4cnc(Oc5c(F)cccc5F)cc4C)c3N)[nH]c2cc1NS(=O)(=O)C1CCCCC1 [Example 5-1-314]
### Prompt Arrange items by their IC50 values in increasing order. Sort the labels as requested; that list is your answer.
### Response II, I, III

----------
System: human Src enzyme (Homo sapiens)
Construct: purchased Carna Biosciences, Inc. 08-173
Test summary: Src enzyme inhibitory activity (time-resolved fluorometry, biotinylated peptide phosphorylation)
Type: biochemical
Details: read-out: SRC_IC50
Metric: IC50 (nM)

The examples below pair each entry with its known result.
Cc1cc(Oc2c(F)cccc2F)ncc1-n1ncc(C(=O)c2cc3cc(OCC(F)F)c(NS(=O)(=O)C4CCCCC4)cc3[nH]2)c1N [Example 5-1-315] :: 330
Cc1cc(-n2ncc(C(=O)c3cc4cc(OC5CCN(C(C)C)CC5)c(N5C(=O)N[C@@H](C(C)C)C5=O)cc4[nH]3)c2N)ccc1Oc1ccccc1F [Example 5-1-295] :: 700
Cc1cc(-n2ncc(C(=O)c3cc4cc(OC5CCN(C(C)C)CC5)c(Br)cc4[nH]3)c2N)ccc1Oc1cccc(F)c1 [Example 5-1-210] :: 510
Cc1cc(-n2ncc(C(=O)c3cc4cc(N5CCOCC5)c(N5CCOCC5)cc4[nH]3)c2N)ccc1Oc1ccccc1F [Example 5-1-159] :: 96
Cc1cc(Oc2ccccc2F)ncc1-n1ncc(C(=O)c2cc3cc(C4CC4)c(NS(=O)(=O)C4CCOCC4)cc3[nH]2)c1N [Example 5-1-396] :: 230
Cc1cc(Oc2c(F)cccc2F)ncc1-n1ncc(C(=O)c2cc3cc(F)c(NC4CN(S(C)(=O)=O)C4)cc3[nH]2)c1N [Example 5-1-102] :: 5

[I] Cc1cc(-n2ncc(C(=O)c3cc4cc(OC5CCN(C(C)C)CC5)c(N5CCOC5=O)cc4[nH]3)c2N)ccc1Oc1ccccc1F [Example 5-1-178]
[II] Cc1cc(-n2ncc(C(=O)c3cc4cc(N5CCOCC5)c(N5CCN(S(C)(=O)=O)CC5)cc4[nH]3)c2N)ccc1Oc1ccccc1F [Example 5-1-158]
### Prompt Smaller IC50 value? Options are I and II Give the label under which the chosen entry appears.
### Response I

[1] Cc1cc2cc(C(=O)c3cnn(-c4cnc(Oc5c(F)cccc5F)cc4C)c3N)[nH]c2cc1NS(=O)(=O)CC(=O)N1CCCC1 [Example 5-1-088]
[2] Cc1cc(-n2ncc(C(=O)c3cc4cc(OC(F)F)c(N5CCOCC5)cc4[nH]3)c2N)ccc1Oc1ccccc1F [Example 5-1-173]
[3] Cc1cc(Oc2ccccc2F)ccc1-n1ncc(C(=O)c2cc3cc(N4CCOCC4)c(NC4CCN(S(C)(=O)=O)CC4)cc3[nH]2)c1N [Example 5-1-129]
### Prompt Please list these in order of increasing IC50. Thank you! Rank them, then answer with their labels in that order.
### Response 3, 1, 2

[I] Cc1cc(Oc2ccccc2F)ccc1-n1ncc(C(=O)c2cc3cc(OCC(F)F)c(N4C(=O)[C@@H]5C[C@H](NC(=O)OCC6c7ccccc7-c7ccccc76)CN5C4=O)cc3[nH]2)c1N [Example 5-1-253]
[II] Cc1cc(-n2ncc(C(=O)c3cc4cc(OC5CCN(C(C)C)CC5)c(NS(C)(=O)=O)cc4[nH]3)c2N)ccc1Oc1ccccc1F [Example 5-1-156]
### Prompt I would appreciate it if you could say which entry, I or II , has the lower IC50 value. Refer to your chosen entry by its label in the reply.
### Response I
(I: 23 nM, II: 1100 nM)

[a] Cc1cc(Oc2ccccc2F)ccc1-n1ncc(C(=O)c2cc3cc(OCC(F)F)c(N4C(=O)[C@@H]5C[C@H](NC(=O)OCc6ccco6)CN5C4=O)cc3[nH]2)c1N [Example 5-1-278]
[b] Cc1cc(-n2ncc(C(=O)c3cc4cc(OCC(F)F)c(N5C(=O)NC(C)(C)C5=O)cc4[nH]3)c2N)ccc1Oc1ccccc1F [Example 5-1-170]
[c] Cc1cc(Oc2cccc(F)c2)ccc1-n1ncc(C(=O)c2cc3cc(F)c(C4CCN(C(C)C)CC4)cc3[nH]2)c1N [Example 5-1-009]
[d] Cc1cc(Oc2c(F)cccc2F)ncc1-n1ncc(C(=O)c2cc3cc(OCC(F)F)c(-c4cccs4)cc3[nH]2)c1N [Example 5-1-257]
### Prompt # sort list by recorded IC50, greatest to least List each label, following the requested order.
### Response b, d, a, c
(b: 490 nM, d: 250 nM, a: 23 nM, c: 9.3 nM)

----------
System: human Lck enzyme (Homo sapiens)
Construct: purchased Carna Biosciences, Inc. 08-170
Test summary: Lck enzyme inhibitory activity (time-resolved fluorometry, biotinylated peptide phosphorylation)
Type: biochemical
Details: biotinylated peptide phosphorylation, read-out: LCK_IC50
pIC50: −log10 of the molar value.
Metric: pIC50

# example entries with known answers
Cc1cc(Oc2c(F)cccc2F)ncc1-n1ncc(C(=O)c2cc3cc(F)c(NS(=O)(=O)C4CC4)cc3[nH]2)c1N [Example 4-2-044] :: 7.49
Cc1cc(Oc2cc(F)ccc2F)cc(F)c1-n1ncc(C(=O)c2cc3cc(Cl)c(NS(C)(=O)=O)cc3[nH]2)c1N [Example 4-2-081] :: 7.08
Cc1cc(Oc2ccccc2F)cc(F)c1-n1ncc(C(=O)c2cc3cc(OCC(F)F)c(N4CCN(S(C)(=O)=O)CC4)cc3[nH]2)c1N [Example 4-23-006] :: 7.89
Cc1cc(Oc2ccccc2F)ncc1-n1ncc(C(=O)c2cc3cc(F)c(NS(=O)(=O)c4cccc(Cl)n4)cc3[nH]2)c1N [Example 5-1-529] :: 6.59

[I] Cc1cc2cc(C(=O)c3cnn(-c4ccc(Oc5ccccc5F)cc4C)c3N)[nH]c2cc1N1CCCS1(=O)=O [Example 4-2-112]
[II] Cc1cc2cc(C(=O)c3cnn(-c4ccc(Oc5ccccc5F)cc4C)c3N)[nH]c2cc1NS(C)(=O)=O [Example 4-2-053]
### Prompt Compare reported pIC50 values for I and II . Which is lower? // caller expects the label of the chosen entry
### Response I
(I: 8.08, II: 8.29)

----------
System: human Src enzyme (Homo sapiens, UniProt P12931)
Construct: purchased Carna Biosciences, Inc. 08-173
Test summary: Src enzyme inhibitory activity (time-resolved fluorometry, biotinylated peptide phosphorylation)
Format: biochemical
Details: biotinylated peptide phosphorylation, read-out: SRC_IC50
Metric: IC50 (nM)

Some compounds with recorded IC50:
Cc1cc(Oc2c(F)cccc2F)ncc1-n1ncc(C(=O)c2cc3cc(OCC(F)F)c(C4CCN(C(=O)CN)CC4)cc3[nH]2)c1N [Example 4-18-001] :: 24
Cc1cc(Oc2ccccc2F)ccc1-n1ncc(C(=O)c2cc3cc(F)c(N4C(=O)N[C@@H](Cc5ccccc5)C4=O)cc3[nH]2)c1N [Example 5-1-436] :: 230
Cc1cc(Oc2ccccc2F)ccc1-n1ncc(C(=O)c2cc3cc(OCC(F)F)c(NS(=O)(=O)CCCF)cc3[nH]2)c1N [Example 4-24-022] :: 30
Cc1cc(Oc2c(F)cccc2F)ncc1-n1ncc(C(=O)c2cc3cc(OCC(F)F)c(NS(C)(=O)=O)cc3[nH]2)c1N [Example 4-24-031] :: 21
CC(C)N1CCC(c2cc3cc(C(=O)c4cnn(-c5ccc(Oc6cccc(Cl)c6)cc5)c4N)[nH]c3cc2F)CC1 [Example 4-2-005] :: 20

[A] Cc1cc(Oc2ccccc2F)ncc1-n1ncc(C(=O)c2cc3cc(F)c(NS(C)(=O)=O)cc3[nH]2)c1N [Example 4-7-001]
[B] Cc1cc2cc(C(=O)c3cnn(-c4cnc(Oc5ccccc5F)cc4C)c3N)[nH]c2cc1NS(=O)(=O)c1cccc(C#N)n1 [Example 5-1-479]
### Prompt Endpoint returns the identifier whose IC50 is numerically larger, either A or B . Identify your pick by its label.
### Response B
